Test system: colon cancer cells Caco-2
method.notes: MTT antiproliferative assay, Caco-2
Type: cell-based, human
settings: 24 h; logarithm of ratio IC50 LO2 / IC50 cancer cells

| molecule | SI Caco2 |
| --- | --- |
| COc1cc(/C=C2\CN(C)C/C(=C\c3ccc(OC4CCCCO4)c(OC)c3)C2=O)ccc1OC1CCCCO1 (stereo not drawn) | 0.70 |
| COc1cc(/C=C2\CN(C(C)C)C/C(=C\c3cc(OC)c(O)c(OC)c3)C2=O)cc(OC)c1O | 0.02 |
| COc1ccc(/C=C2\CN(C)C/C(=C\c3ccc(OC)nc3)C2=O)cn1 | −0.10 |
| COc1ccc(/C=C/C(=O)/C=C/c2ccc(OC)nc2)cn1 | 0.29 |
| COc1ccc(/C=C2\CN(C(C)C)C/C(=C\c3ccc(OC)nc3)C2=O)cn1 | −0.17 |
| Cc1cc(/C=C2\CN(C(C)C)C/C(=C\c3cc(C)c(O)c(C)c3)C2=O)cc(C)c1O | −0.05 |

====

Catalogue of SI Caco2 readings, one per entry.
Tested on: colon cancer cells Caco-2
method.notes: MTT antiproliferative assay, Caco-2
Format: cell-based, human
settings: 48 h; logarithm of ratio IC50 LO2 / IC50 cancer cells

| molecule | value.qualifier | SI Caco2 |
| --- | --- | --- |
| COc1ccc(/C=C/C(=O)/C=C/c2ccc(OC)nc2)cn1 | = | 0.23 |
| COc1ccc(/C=C2\CN(C(C)C)C/C(=C\c3ccc(OC)nc3)C2=O)cn1 | = | 0.15 |
| COc1cc(/C=C2\CN(C)C/C(=C\c3ccc(OC4CCCCO4)c(OC)c3)C2=O)ccc1OC1CCCCO1 (centres unmarked) | = | 0.38 |
| COc1ccc(/C=C2\CN(C)C/C(=C\c3ccc(OC)nc3)C2=O)cn1 | = | −0.59 |
| COc1cc(/C=C/C(=O)CC(=O)/C=C/c2ccc(O)c(OC)c2)ccc1O | = | −0.08 |
| Cc1cc(/C=C2\CN(C(C)C)C/C(=C\c3cc(C)c(O)c(C)c3)C2=O)cc(C)c1O | = | 0.05 |
| COc1ccc(/C=C2\CCC/C(=C\c3ccc(OC)nc3)C2=O)cn1 | > | 0.1 |
| COc1cc(/C=C2\CN(C(C)C)C/C(=C\c3cc(OC)c(O)c(OC)c3)C2=O)cc(OC)c1O | = | 0.07 |

====

Tested on: lung cancer cells A549
method.notes: MTT antiproliferative assay, A549
Format: cell-based
settings: Homo sapiens, A549, 48 h
pIC50: −log10 of the molar value.
Catalogue of pIC50 readings, one per entry.
quantity.measured: pIC50

| compound | quantity.measured | value.qualifier | number |
| --- | --- | --- | --- |
| COc1ccc(/C=C2\CN(C)C/C(=C\c3ccc(OC)nc3)C2=O)cn1 | pIC50 | = | 4.90 |
| COc1ccc(/C=C2\CN(C(C)C)C/C(=C\c3ccc(OC)nc3)C2=O)cn1 | pIC50 | = | 4.46 |
| COc1cc(/C=C2\CN(C)C/C(=C\c3ccc(OC4CCCCO4)c(OC)c3)C2=O)ccc1OC1CCCCO1 (stereo not shown) | pIC50 | = | 4.93 |
| COc1ccc(/C=C2\CCC/C(=C\c3ccc(OC)nc3)C2=O)cn1 | pIC50 | < | 4.22 |
| COc1ccc(/C=C/C(=O)CC(=O)/C=C/c2ccc(OC)nc2)cn1 | pIC50 | = | 4.54 |
| Cc1cc(/C=C2\CN(C(C)C)C/C(=C\c3cc(C)c(O)c(C)c3)C2=O)cc(C)c1O | pIC50 | = | 4.36 |
| COc1ccc(/C=C/C(=O)/C=C/c2ccc(OC)nc2)cn1 | pIC50 | = | 4.79 |
| Cc1cc(/C=C2\CNC/C(=C\c3cc(C)c(O)c(C)c3)C2=O)cc(C)c1O | pIC50 | < | 4.22 |
| COc1cc(/C=C2\CN(C(C)C)C/C(=C\c3cc(OC)c(O)c(OC)c3)C2=O)cc(OC)c1O | pIC50 | = | 5.03 |
| COc1cc(/C=C/C(=O)CC(=O)/C=C/c2ccc(O)c(OC)c2)ccc1O | pIC50 | = | 4.46 |

====

method.notes: Pharmacokinetics evaluation after gavage
Format: in vivo, Sprague Dawley (SD) rats
settings: male, Sprague Dawley, rat, plasma; SD rats, oral (gavage) 50 mg kg^−1; read-out: Tmax (converted)

| compound | unit.name | Tmax |
| --- | --- | --- |
| COc1cc(/C=C2\CN(C(C)C)C/C(=C\c3cc(OC)c(O)c(OC)c3)C2=O)cc(OC)c1O [CA8] | min | 10 |

====

System: normal human liver cell line LO2
method.notes: MTT assay, normal liver cells LO2
Format: cell-based
settings: 48 h
Description: The human cancer cell lines A549, HepG2, MCF-7, Caco-2, and HeLa and the normal human liver cell line LO2 were all obtained from Shanghai Cell Bank of China. […] The cell inhibition rate was evaluated using the MTT assay. […] The MCACs to be tested were dissolved in dimethyl sulfoxide (DMSO, Merck, Germany) and diluted to five concentrations (3.75, 7.5, 15, 30, 60 μM/L) with RPMI 1640 medium, with each dose analyzed in quadruplicate. […]
Catalogue of log10 of IC50 readings, one per entry.
quantity.measured: log10 of IC50 (log10 of the value in µM)

| molecule | target.under.test | number |
| --- | --- | --- |
| COc1cc(/C=C2\CN(C(C)C)C/C(=C\c3cc(OC)c(O)c(OC)c3)C2=O)cc(OC)c1O | normal human liver cell line LO2 | 0.30 |
| COc1cc(/C=C/C(=O)CC(=O)/C=C/c2ccc(O)c(OC)c2)ccc1O | normal human liver cell line LO2 | 1.44 |
| COc1ccc(/C=C/C(=O)/C=C/c2ccc(OC)nc2)cn1 | normal human liver cell line LO2 | 1.24 |
| Cc1cc(/C=C2\CN(C(C)C)C/C(=C\c3cc(C)c(O)c(C)c3)C2=O)cc(C)c1O | normal human liver cell line LO2 | 0.92 |
| COc1ccc(/C=C/C(=O)CC(=O)/C=C/c2ccc(OC)nc2)cn1 | normal human liver cell line LO2 | 1.76 |
| COc1ccc(/C=C2\CN(C)C/C(=C\c3ccc(OC)nc3)C2=O)cn1 | normal human liver cell line LO2 | 0.40 |
| COc1cc(/C=C2\CN(C)C/C(=C\c3ccc(OC4CCCCO4)c(OC)c3)C2=O)ccc1OC1CCCCO1 (stereo not shown) | normal human liver cell line LO2 | 0.70 |
| COc1ccc(/C=C2\CN(C(C)C)C/C(=C\c3ccc(OC)nc3)C2=O)cn1 | normal human liver cell line LO2 | 0.84 |

====

Test system: cervical cancer cells HeLa
method.notes: MTT antiproliferative assay, HeLa
Assay type: cell-based
settings: Homo sapiens, 24 h
Catalogue of IC50 readings, one per entry.

| compound | value.qualifier | IC50 (µM) |
| --- | --- | --- |
| COc1cc(/C=C2\CN(C(C)C)C/C(=C\c3cc(OC)c(O)c(OC)c3)C2=O)cc(OC)c1O | = | 4.26 |
| COc1ccc(/C=C/C(=O)CC(=O)/C=C/c2ccc(OC)nc2)cn1 | > | 60 |
| COc1ccc(/C=C2\CN(C(C)C)C/C(=C\c3ccc(OC)nc3)C2=O)cn1 | = | 2.35 |
| COc1ccc(/C=C2\CCC/C(=C\c3ccc(OC)nc3)C2=O)cn1 | = | 29.6 |
| COc1cc(/C=C/C(=O)CC(=O)/C=C/c2ccc(O)c(OC)c2)ccc1O | = | 58.3 |
| Cc1cc(/C=C2\CNC/C(=C\c3cc(C)c(O)c(C)c3)C2=O)cc(C)c1O | > | 60 |
| Cc1cc(/C=C2\CN(C(C)C)C/C(=C\c3cc(C)c(O)c(C)c3)C2=O)cc(C)c1O | = | 5.26 |
| COc1ccc(/C=C/C(=O)/C=C/c2ccc(OC)nc2)cn1 | = | 18.1 |
| COc1cc(/C=C2\CN(C)C/C(=C\c3ccc(OC4CCCCO4)c(OC)c3)C2=O)ccc1OC1CCCCO1 (stereo not shown) | = | 8.4 |
| COc1ccc(/C=C2\CN(C)C/C(=C\c3ccc(OC)nc3)C2=O)cn1 | = | 4.6 |

====

Catalogue of Solubility readings, one per entry.
method.notes: Solubility in water by HPLC
Format: physicochemical
settings: 25°C, mass of solute dissolved at saturation in 100 g of solvent
quantity.measured: Solubility

| compound | result |
| --- | --- |
| Cc1cc(/C=C2\CN(C(C)C)C/C(=C\c3cc(C)c(O)c(C)c3)C2=O)cc(C)c1O | 3.29 mg/100g |
| COc1cc(/C=C2\CN(C(C)C)C/C(=C\c3cc(OC)c(O)c(OC)c3)C2=O)cc(OC)c1O | 403.44 mg/100g |
| Cc1cc(/C=C2\CNC/C(=C\c3cc(C)c(O)c(C)c3)C2=O)cc(C)c1O | 15.04 mg/100g |
| COc1ccc(/C=C2\CN(C)C/C(=C\c3ccc(OC)nc3)C2=O)cn1 | 2.63 mg/100g |
| COc1cc(/C=C2\CN(C)C/C(=C\c3ccc(OC4CCCCO4)c(OC)c3)C2=O)ccc1OC1CCCCO1 (stereo not drawn) | 1.37 mg/100g |
| COc1cc(/C=C/C(=O)CC(=O)/C=C/c2ccc(O)c(OC)c2)ccc1O | 0.00017 mg/100g |
| COc1ccc(/C=C/C(=O)/C=C/c2ccc(OC)nc2)cn1 | 0.42 mg/100g |
| COc1ccc(/C=C/C(=O)CC(=O)/C=C/c2ccc(OC)nc2)cn1 | 0.07 mg/100g |
| COc1ccc(/C=C2\CN(C(C)C)C/C(=C\c3ccc(OC)nc3)C2=O)cn1 | 0.22 mg/100g |

Taken from paper PMC11589483.
